# tested-system: c-IAP1 (Homo sapiens, UniProt Q13490)
# Construct: endogenous in cells; host or cells: HCT116
# Sequence (Q13490 whole entry): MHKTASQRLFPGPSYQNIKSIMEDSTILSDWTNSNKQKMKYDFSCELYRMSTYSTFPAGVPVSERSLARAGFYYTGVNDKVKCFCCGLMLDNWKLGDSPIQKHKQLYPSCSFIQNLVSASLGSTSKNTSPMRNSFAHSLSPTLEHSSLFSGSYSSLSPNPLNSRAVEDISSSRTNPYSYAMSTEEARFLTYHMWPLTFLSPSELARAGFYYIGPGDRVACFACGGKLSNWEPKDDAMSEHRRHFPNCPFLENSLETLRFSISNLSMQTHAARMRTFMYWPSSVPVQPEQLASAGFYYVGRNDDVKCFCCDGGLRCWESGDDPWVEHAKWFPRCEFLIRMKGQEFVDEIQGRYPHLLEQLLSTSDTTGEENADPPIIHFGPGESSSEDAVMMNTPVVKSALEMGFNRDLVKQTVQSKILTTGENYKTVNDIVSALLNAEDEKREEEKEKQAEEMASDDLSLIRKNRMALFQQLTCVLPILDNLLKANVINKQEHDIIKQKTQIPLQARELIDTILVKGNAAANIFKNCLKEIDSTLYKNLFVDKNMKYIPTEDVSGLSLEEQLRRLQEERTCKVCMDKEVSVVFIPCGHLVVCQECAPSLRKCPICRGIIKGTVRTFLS
# assay-overview: Detection of c-IAP1 in cells by western blotting
# Format: cell-based
# assay-conditions: HCT116 cells, overnight treatment
metric-name: c-IAP1 levels

[[record]]
chemical_structure = "CN[C@@H](C)C(=O)N[C@H](C(=O)N1CCC[C@H]1CN(CCCCc1ccccc1)C(=O)CCCCCCCCC(=O)N(CCCCc1ccccc1)C[C@@H]1CCCN1C(=O)[C@@H](NC(=O)[C@H](C)NC)C(C)(C)C)C(C)(C)C"
tested_system = "c-IAP1 (Homo sapiens, UniProt Q13490)"
test_result = "reduced"

[[record]]
chemical_structure = "CN[C@@H](C)C(=O)N[C@H](C(=O)N1CCC[C@H]1CN(CCc1ccccc1)C(=O)CCNC(=O)c1ccc(C(=O)NCCC(=O)N(CCc2ccccc2)C[C@@H]2CCCN2C(=O)[C@@H](NC(=O)[C@H](C)NC)C(C)(C)C)cc1)C(C)(C)C"
tested_system = "c-IAP1 (Homo sapiens, UniProt Q13490)"
test_result = "reduced"

[[record]]
chemical_structure = "CN[C@@H](C)C(=O)N[C@H](C(=O)N1CCC[C@H]1CN(CCc1ccccc1)C(=O)CNC(=O)c1cccc(C(=O)NCC(=O)N(CCc2ccccc2)C[C@@H]2CCCN2C(=O)[C@@H](NC(=O)[C@H](C)NC)C(C)(C)C)c1)C(C)(C)C"
tested_system = "c-IAP1 (Homo sapiens, UniProt Q13490)"
test_result = "reduced"

[[record]]
chemical_structure = "CN[C@@H](C)C(=O)N[C@H](C(=O)N1CCC[C@H]1CN(CCc1ccc(C(F)(F)F)cc1)C(=O)CCCCCCCCC(=O)N(CCc1ccc(C(F)(F)F)cc1)C[C@@H]1CCCN1C(=O)[C@@H](NC(=O)[C@H](C)NC)C(C)(C)C)C(C)(C)C"
tested_system = "c-IAP1 (Homo sapiens, UniProt Q13490)"
test_result = "reduced"


###

# tested-system: c-IAP1 (Homo sapiens, UniProt Q13490)
# Construct: endogenous in cells; host or cells: HCT116
# assay-overview: Detection of c-IAP1 in cells by western blotting
# Format: cell-based
# assay-conditions: HCT116 cells, overnight treatment
metric-name: c-IAP1 levels

[[record]]
compound = "CN[C@@H](C)C(=O)N[C@H](C(=O)N1CCC[C@H]1CN(CCc1ccccc1)C(=O)CNC(=O)c1ccc(-c2ccc(C(=O)NCC(=O)N(CCc3ccccc3)C[C@@H]3CCCN3C(=O)[C@@H](NC(=O)[C@H](C)NC)C(C)(C)C)cc2)cc1)C(C)(C)C [Compound 45]"
metric_name = "c-IAP1 levels"
test_result = "reduced"

[[record]]
compound = "CN[C@@H](C)C(=O)N[C@H](C(=O)N1CCC[C@H]1CN(CCc1ccccc1)C(=O)CNC(=O)C(=O)NCC(=O)N(CCc1ccccc1)C[C@@H]1CCCN1C(=O)[C@@H](NC(=O)[C@H](C)NC)C(C)(C)C)C(C)(C)C [Compound 31]"
metric_name = "c-IAP1 levels"
test_result = "reduced"

[[record]]
compound = "CN[C@@H](C)C(=O)N[C@H](C(=O)N1CCC[C@H]1CN(Cc1cccc(C(F)(F)F)c1)C(=O)CCCCCCCCC(=O)N(Cc1cccc(C(F)(F)F)c1)C[C@@H]1CCCN1C(=O)[C@@H](NC(=O)[C@H](C)NC)C(C)(C)C)C(C)(C)C [Compound 100]"
metric_name = "c-IAP1 levels"
test_result = "reduced"

